- experiment.summary: PSAC antagonists in infected red cells, primary screen, cell-based, P. falciparum Indochina, OD700, 1 h (AID 1154)
- applied.conditions: P. falciparum Indochina infected RBC osmotic lysis, higher = more signal, called active from +8 up or from −8 down
z-score values for the compounds below.
measured.property: z-score

>>> result("C/C=C\\[C@@H](NCc1ccccc1Br)[C@@H](O)Cc1ccccc1")
-0.222
>>> result("CC(C)[C@H](NC(=O)OC(C)(C)C)[C@@H](O)CC(=O)OC(C)(C)C")
0.775
>>> result("COCCOC(=O)N1C(=O)[C@@]2(c3cc(C#Cc4ccc(OC)cc4)ccc31)[C@H](c1ccc(O)cc1)N1[C@H](c3ccccc3)[C@H](c3ccccc3)OC(=O)[C@H]1[C@@H]2C(N)=O")
6.02
>>> result("Cc1cc2c(nc1C)CCCN2CC(C)ON=C1[C@H]2CCn3c(=O)n(-c4ccccc4)c(=O)n3[C@H]2[C@H](O)[C@@H]2O[C@H]12 (some centres not stated)")
1.21
>>> result("O=C1[C@H]2[C@H]3[C@H](O)[C@H](O)CC(=NOC[C@@H](O)COCc4ccco4)[C@H]3CC[C@H]2C(=O)N1C1CCCCC1")
1.6
>>> result("O=C1[C@H]2[C@H]3[C@H](O)[C@H](O)CC(=NOCc4ccccc4)[C@H]3CC[C@H]2C(=O)N1c1cccc(Oc2ccccc2)c1")
6.64
>>> result("CC(C)[C@@H](OCc1ccccc1)[C@H](C)C=NOC[C@@H](C)[C@H](OCc1ccccc1)C(C)C")
0.641
